The reported numbers originate from patent US10738041B2.

system: human Fpn (Homo sapiens)
Construct: FLAG (C); made in house; host or cells: Pichia pastoris
Sequence (Q9NP59 whole entry): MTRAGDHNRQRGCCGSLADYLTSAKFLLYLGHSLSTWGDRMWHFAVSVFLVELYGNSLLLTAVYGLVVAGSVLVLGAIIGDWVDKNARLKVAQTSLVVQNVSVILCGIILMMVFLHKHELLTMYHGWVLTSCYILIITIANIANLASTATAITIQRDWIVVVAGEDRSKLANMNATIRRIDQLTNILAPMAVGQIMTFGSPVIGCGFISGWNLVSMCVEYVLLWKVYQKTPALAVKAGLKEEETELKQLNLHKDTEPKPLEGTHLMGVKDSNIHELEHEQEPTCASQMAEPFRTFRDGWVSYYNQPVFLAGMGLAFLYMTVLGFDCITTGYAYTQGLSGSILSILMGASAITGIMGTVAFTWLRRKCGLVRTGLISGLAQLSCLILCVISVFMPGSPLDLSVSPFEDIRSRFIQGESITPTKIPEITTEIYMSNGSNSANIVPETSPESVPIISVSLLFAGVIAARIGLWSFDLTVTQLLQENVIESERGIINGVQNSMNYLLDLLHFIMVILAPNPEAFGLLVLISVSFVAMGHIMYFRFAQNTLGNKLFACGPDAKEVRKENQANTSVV
assay_summary: Biophysical Ferroportin-Hepcidin Binding Assay (fluorescence polarization)
run_conditions: average of multiple measurements; 1 μM human Fpn, 20 nM TMR-hepcidin; read-out: FP IC50
Protocol: This biophysical assay was developed to confirm inhibition of hepcidin binding to ferroportin (Fpn) more directly. Incubation of TMR-hepcidin with purified human Fpn isolated from Pichia pastoris yeast cells expressing human Fpn with a C-terminal FLAG affinity tag (Bonaccorsi di Patti, 2014) leads to increased fluorescence polarization (FP) of the TMR-hepcidin ligand. […]
Overview of reported pIC50 across a group of molecules:
// scale note: pIC50 = -log10(conc_M); give the bare number

Consider the reported pIC50 for these molecules:
O=C(NCc1ncccc1F)c1csc(CCNCC(F)(F)c2nc3ccccc3[nH]2)n1 [Example 196]	6.06
O=C(NCc1ccccn1)c1csc(CCNCc2nc3ccccc3[nH]2)n1 [Example 12]	6.07
CC(C)(NC(=O)c1csc(CCNCc2nc3ccccc3[nH]2)n1)c1ccccc1 [Example 26]	5.95
CN(C(=O)c1csc(CCNCc2nc3ccccc3[nH]2)n1)c1ccccc1 [Example 19]	4.99

Then there is this molecule:
Field: pIC50 (human Fpn (Homo sapiens)). Entry: O=C(NCc1ccccc1N1CCOCC1)c1csc(CCNCc2nc3ccccc3[nH]2)n1 [Example 63] 6.07
